src = ChEMBL document CHEMBL1148022

# ASSAY_SUMMARY: Oral bioavailability in rat at 1 mg/kg
# Format: ADME, organism-based
# STUDY_CONDITIONS: in vivo
QUANTITY_MEASURED: bioavailability (%)

// worked examples, bioavailability included
{"COMPOUND": "O=C(NC1CCN(C(=O)/C=C/c2cccnc2)CC1)C(c1ccccc1)C1CCCCC1 (centres undefined)", "UNIT_ABBREVIATION": "%", "NUMERIC_RESULT": 7}
{"COMPOUND": "O=C(NC1CCN(C(=O)CCc2cccnc2)CC1)C(c1ccc(Cl)cc1)C1CCCCC1 (centres undefined)", "UNIT_ABBREVIATION": "%", "NUMERIC_RESULT": 0}
{"COMPOUND": "O=C(NC1CCN(C(=O)CCc2cccnc2)CC1)C(c1ccc2ccccc2c1)C1CCCCC1 (centres undefined)", "UNIT_ABBREVIATION": "%", "NUMERIC_RESULT": 9}
{"COMPOUND": "O=C(NC1CCN(C(=O)CCc2cccnc2)CC1)C(c1ccccc1)C1CCC(F)(F)CC1 (centres undefined)", "UNIT_ABBREVIATION": "%", "NUMERIC_RESULT": 2}

A. O=C(NC1CCN(C(=O)CCc2ccc(F)nc2)CC1)C(c1ccccc1)C1CCCCC1 (centres undefined)
B. O=C(NC1CCN(C(=O)CCc2cccnc2)CC1)C(C1CCCCC1)C1CCCCC1
Query :: // returns A or B , whichever has the lower bioavailability API: response body contains the label of the selected item.
Result :: A

* * *

# MEASURED_TARGET: C3a anaphylatoxin chemotactic receptor (Homo sapiens)
# Sequence (Q16581 whole entry): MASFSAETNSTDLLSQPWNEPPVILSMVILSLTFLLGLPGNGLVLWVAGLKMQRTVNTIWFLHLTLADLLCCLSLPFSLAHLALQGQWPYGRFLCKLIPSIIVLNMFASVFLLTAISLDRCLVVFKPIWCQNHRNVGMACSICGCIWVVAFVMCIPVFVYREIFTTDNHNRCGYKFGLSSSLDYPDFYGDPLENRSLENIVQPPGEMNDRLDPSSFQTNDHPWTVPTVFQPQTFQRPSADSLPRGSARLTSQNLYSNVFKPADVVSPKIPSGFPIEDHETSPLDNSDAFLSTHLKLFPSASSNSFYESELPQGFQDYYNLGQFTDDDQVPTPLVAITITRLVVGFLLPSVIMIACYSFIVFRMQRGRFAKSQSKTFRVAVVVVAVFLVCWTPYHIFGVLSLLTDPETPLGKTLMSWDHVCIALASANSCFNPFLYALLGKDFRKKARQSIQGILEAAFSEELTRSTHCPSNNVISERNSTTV
# ASSAY_SUMMARY: Antagonist activity at human C3a receptor expressed in HMC1 cells co-expressing aequorin
# Assay type: functional, cell-based
QUANTITY_MEASURED: pIC50
Just the number, please; pIC50 means minus log10 of the concentration in mol/L.

{"SAMPLE_SMILES": "O=C(NC1CCN(C(=O)CCc2cccnc2)CC1)C(c1ccccc1)c1ccccc1", "MEASURED_TARGET": "C3a anaphylatoxin chemotactic receptor (Homo sapiens)", "QUANTITY_MEASURED": "pIC50", "NUMERIC_RESULT": 5.50}

Query :: Need pIC50 of "O=C(NC1CCN(C(=O)CCc2cccnc2)CC1)C1c2cc(Cl)ccc2Oc2ccc(Cl)cc21" , thanks.
Result :: 6.20

* * *

# MEASURED_TARGET: C3a anaphylatoxin chemotactic receptor (Homo sapiens)
# ASSAY_SUMMARY: Displacement of [125I]C3a from human C3a receptor expressed in HMC1 cells co-expressing aequorin
# Format: cell-based
Each entry below lists one item and its recorded pIC50 value.
pIC50 here: minus log base 10 of the concentration, concentration in moles per litre.

Worked set:
{"MOLECULE": "CC1(C)CC(C(C(=O)NC2CCN(C(=O)CCc3cccnc3)CC2)c2ccccc2)CC(C)(C)C1 (centres undefined)", "NUMERIC_RESULT": 4.20}
{"MOLECULE": "O=C(NC1CCN(C(=O)CCc2cccnc2)CC1)C(c1ccccc1)c1ccccc1", "NUMERIC_RESULT": 4.90}
{"MOLECULE": "O=C(NC1CCN(C(=O)CCc2cccnc2)CC1)C(c1cc(F)c(F)c(F)c1)C1CCCCC1 (centres undefined)", "NUMERIC_RESULT": 7.00}

Field: next molecule
Query :: Query: pIC50; subject: O=C(NC1CCN(C(=O)Cc2cccc(F)c2F)CC1)C(c1ccccc1)C1CCCCC1 (centres undefined)
Result :: 5.00

* * *

# ASSAY_SUMMARY: Oral bioavailability in rat at 1 mg/kg
# Type: ADME, organism-based
# STUDY_CONDITIONS: in vivo
QUANTITY_MEASURED: bioavailability (%)

{"COMPOUND": "O=C(NC1CCN(C(=O)CCc2cccnc2)CC1)C(c1ccccc1)c1ccccc1", "NUMERIC_RESULT": 5}

P. O=C(NC1CCN(C(=O)CCc2cccnc2)CC1)C(c1cc(F)c(F)c(F)c1)C1CCCCC1 (stereo not drawn)
Q. O=C(NC1CCN(C(=O)CCc2cccnc2)CC1)C(c1ccccc1)C1CCCCC1 (stereo not drawn)
Query :: When the recorded bioavailability values are compared, which is smaller: that of P or that of Q ? Identify your pick by its label.
Result :: P
